# experiment-summary: Chemical stability assessment in formulation (UPLC-UV-MS purity loss at 37° C.)
# Format: physicochemical
# settings: 8 mM phosphate buffer pH 7.4, 1 mg/mL, 2 weeks
Numbered stars: 1 amine (or outer) side, 2 acyl side, 3 side chain; on linkers, the order of the positions; unused ones are H or OH. Square brackets hold non-standard residues; d marks the D form. Side chains are listed from the residue outwards. * marks the point of attachment. C18 diacid = O=C(O)CCCCCCCCCCCCCCCCC(=O)*; C16 diacid = O=C(O)CCCCCCCCCCCCCCC(=O)*; γGlu = O=C(O)[C@H](CCC(=O)[*:2])N[*:1]; AEEA = NCCOCCOCC(=O)O; Aib = CC(C)(N)C(=O)O
Purity loss per week at 37° C. reference
State the answer as a number, implicitly in %.

substance: Y[Aib]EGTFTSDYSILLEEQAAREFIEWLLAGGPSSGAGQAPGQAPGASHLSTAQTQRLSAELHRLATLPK([AEEA-AEEA-γGlu-C18 diacid])TETGSGSP-NH2 [Compound 57]
parameter-measured: Purity loss per week at 37° C.
unit-text: %
assay-result: 0.2
--
substance: H[Aib]HGTFTSDYSILLEEQAAREFIEWLLAGGPSSGAGQAPGQAPLASHLSTAQTQRLSAELHK([AEEA-AEEA-γGlu-C18 diacid])LATLPRTETGSGSP-NH2 [Compound 93]
parameter-measured: Purity loss per week at 37° C.
unit-text: %
assay-result: 2.8
--
substance: H[Aib]HGTFTSDYSILLEEQAAREFIEWLLAGGPSSGEASHLSTAQTQRLSAELHK([AEEA-AEEA-γGlu-C18 diacid])LATLPRTETGSGAP-NH2 [Compound 85]
parameter-measured: Purity loss per week at 37° C.
unit-text: %
assay-result: 2.0

Query string: Look up Purity loss per week at 37° C. of Y[Aib]EGTFTSDYSILLEEQAAREFIEWLLAGGPSSGEASHLSTAQTQRLSAELHRLK([AEEA-AEEA-γGlu-C18 diacid])TLPRTETGSGSP-NH2 [Compound 80] and report it.
Result string: 0.8

Query string: Look up Purity loss per week at 37° C. of H[Aib]HGTFTSDYSILLEEQAAREFIEWLLAGGPSSGEASHLSTAQTQRLSAELHRLK([AEEA-AEEA-γGlu-C18 diacid])TLPRTETGSGSP-NH2 [Compound 83] and report it.
Result string: 2.3

Query string: Look up Purity loss per week at 37° C. of H[Aib]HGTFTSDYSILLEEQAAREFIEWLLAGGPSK([AEEA-AEEA-γGlu-C16 diacid])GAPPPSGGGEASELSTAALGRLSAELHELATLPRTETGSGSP-NH2 [Compound 12] and report it.
Result string: 5.6

Query string: Look up Purity loss per week at 37° C. of H[Aib]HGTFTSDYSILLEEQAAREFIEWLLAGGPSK([AEEA-AEEA-γGlu-C18 diacid])GEASQLSTAALGRLSAELHRLATLPRTETGSGSP-NH2 [Compound 73] and report it.
Result string: 2.8

Cited source for all entries: patent US20260174875A1
